B1: TPR t1 (parent)
chain: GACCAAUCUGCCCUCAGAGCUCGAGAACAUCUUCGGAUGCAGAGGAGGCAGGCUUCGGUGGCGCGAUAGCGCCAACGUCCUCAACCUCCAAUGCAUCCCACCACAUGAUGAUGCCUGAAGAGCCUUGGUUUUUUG

variants of: B1; assay: polymerase ribozyme fitness, log enrichment relative to wild type (log ratio); higher = more active; in vitro selection for triplet polymerase activity
Give 1.0 when the value for polymerase ribozyme fitness (log ratio) is at least -6. Give 0.0 when it is less.

Worked set:
G36A G42C A84U U106A G110C C123U G128A    0.0
C3G C13A    1.0
G60A G69A U87A    1.0
C31G A111U C114U    0.0
C15U A18G U59A G93C C104U    1.0
U7G A74C G93U G113A    1.0

For the next question, use this variant.
[Q] Textbook exercise: given the entry C73G U92A , state whether its polymerase ribozyme fitness (log ratio) is greater than or equal to -6.
[A] 1.0
